- Test system: COLO 205 colon
- experimentalDetails: NCI tumour cell line growth inhibition, 48 h
endpointName: GI50

- molecule: "CC1(C)CC[C@]2(C(=O)O)CC[C@]3(C)C(=CC[C@@H]4[C@@]5(C)C/C(=C/c6ccco6)C(=O)C(C)(C)[C@@H]5CC[C@]43C)[C@@H]2C1"
  GI50: "2.02 µM"
- molecule: "NC(=O)c1ncn(C2OC(CO)C(O)C2O)c1N (stereo not given)"
  GI50: "> 100 µM"
- molecule: "C=C(Cl)[C@@](Cl)(CBr)CC[C@@H](Br)C(C)(C)Cl"
  GI50: "0.776 µM"
- molecule: "CNCc1ccc(-c2[nH]c3cc(F)cc4c3c2CCNC4=O)cc1"
  GI50: "11.7 µM"

Task: Looking for the measured GI50 of COc1c(O)c2c3c(c1OC)-c1ccccc1CC3N(S(=O)(=O)c1ccc(C)cc1)CC2 (stereo not given) , can you help?
Result: 19.2 µM
